Just for reference, patent US20210380702A1 is where these values come from.

// reported IC50 per item
- Target: T1, recombinant human PD-L1 (amino acids 19-239 of NP_054862.1) expressed with a C-terminal mouse IgG2a Fc tag (human)
- T1 construct: called dimeric; also called hPD-L1-mFc
- T1 sequence (chain, as listed by the source limits assumed): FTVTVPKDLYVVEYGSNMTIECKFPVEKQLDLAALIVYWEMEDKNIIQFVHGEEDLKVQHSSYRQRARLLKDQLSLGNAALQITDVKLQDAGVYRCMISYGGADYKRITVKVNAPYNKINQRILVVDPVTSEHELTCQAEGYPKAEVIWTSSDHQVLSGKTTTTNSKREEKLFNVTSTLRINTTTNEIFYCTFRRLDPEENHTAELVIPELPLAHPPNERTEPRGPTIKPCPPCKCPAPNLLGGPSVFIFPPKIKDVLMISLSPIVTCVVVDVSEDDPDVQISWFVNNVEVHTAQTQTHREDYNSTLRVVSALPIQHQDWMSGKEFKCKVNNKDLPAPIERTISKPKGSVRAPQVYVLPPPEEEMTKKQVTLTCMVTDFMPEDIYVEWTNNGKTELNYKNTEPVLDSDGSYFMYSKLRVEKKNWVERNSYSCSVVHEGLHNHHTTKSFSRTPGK
- Test details: competition ELISA: 0.5 nM hPD-L1-mFc binding to coated hPD-1-hFc

Some solved entries appear below for comparison.
Binder	IC50
H2aM8314N (antibody, V domains shown, human variable regions, mouse IgG2 Fc (H2aM prefix); also called H2M8314N) VH: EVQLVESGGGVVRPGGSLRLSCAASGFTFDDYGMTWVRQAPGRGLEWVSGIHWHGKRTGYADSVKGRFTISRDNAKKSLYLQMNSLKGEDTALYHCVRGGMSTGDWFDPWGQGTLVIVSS VL: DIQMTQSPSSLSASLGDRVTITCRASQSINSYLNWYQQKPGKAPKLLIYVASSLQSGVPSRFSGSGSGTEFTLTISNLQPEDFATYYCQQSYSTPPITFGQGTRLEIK	< 0.25 nM
H2aM8323N (antibody, V domains shown, human variable regions, mouse IgG2 Fc (H2aM prefix); also called H2M8323N) VH: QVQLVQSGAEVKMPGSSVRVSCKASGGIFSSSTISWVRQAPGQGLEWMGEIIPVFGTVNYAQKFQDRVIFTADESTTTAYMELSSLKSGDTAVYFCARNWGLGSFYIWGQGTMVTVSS VL: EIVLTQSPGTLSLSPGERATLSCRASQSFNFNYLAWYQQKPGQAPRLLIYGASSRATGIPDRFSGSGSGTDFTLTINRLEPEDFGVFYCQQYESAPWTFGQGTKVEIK	< 0.25 nM
H2aM8310N (antibody, V domains shown, human variable regions, mouse IgG2 Fc (H2aM prefix); also called H2M8310N) VH: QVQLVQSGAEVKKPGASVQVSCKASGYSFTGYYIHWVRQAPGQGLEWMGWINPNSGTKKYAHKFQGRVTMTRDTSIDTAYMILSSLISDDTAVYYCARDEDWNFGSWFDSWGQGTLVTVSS VL: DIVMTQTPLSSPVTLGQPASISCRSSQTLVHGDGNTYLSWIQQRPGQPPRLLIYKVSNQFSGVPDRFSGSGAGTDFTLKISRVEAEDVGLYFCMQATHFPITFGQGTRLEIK	0.39 nM

Consider now this further binder.
*Q* Entry under review: H1H9336P (antibody, V domains shown, human IgG1 Fc (H1H prefix)) VH: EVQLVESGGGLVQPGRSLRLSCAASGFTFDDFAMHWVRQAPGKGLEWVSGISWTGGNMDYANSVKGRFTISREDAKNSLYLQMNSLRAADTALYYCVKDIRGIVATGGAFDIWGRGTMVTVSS VL: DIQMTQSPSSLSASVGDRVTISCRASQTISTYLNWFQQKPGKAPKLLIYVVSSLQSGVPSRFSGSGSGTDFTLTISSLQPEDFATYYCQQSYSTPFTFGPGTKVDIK . Reported IC50?
*A* < 0.25 nM
